Tested On: T1, N-Avitagged wt hTEAD4^217-434 (human, UniProt Q15561 217-434, acylated at Cys367 (100%))
T1 construct: TEAD4 (TEA/ATTS domain transcription factor 4), human, residues 217-434; held on streptavidin (SA) chips; also called Wild type; source: purified; not shown: Avitag, N-terminal, kept
T1 sequence (Q15561 217-434): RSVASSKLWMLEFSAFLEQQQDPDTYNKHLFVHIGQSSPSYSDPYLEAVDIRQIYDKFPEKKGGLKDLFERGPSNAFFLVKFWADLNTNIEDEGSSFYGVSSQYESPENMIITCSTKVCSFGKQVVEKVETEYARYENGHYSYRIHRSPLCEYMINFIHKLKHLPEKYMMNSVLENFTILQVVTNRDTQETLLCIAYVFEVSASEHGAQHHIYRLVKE
Experimental Protocol: SPR; N-Avitagged hTEAD4^217-434 proteins immobilised on Series S Sensor Chip SA, YAP^50-171 proteins as analyte; Biacore T200; 25°C (298 K); 50 mM HEPES, 100 mM KCl, 0.25 mM TCEP, 1 mM EDTA, 0.05% Tween 20, 0.05% BSA, 2% DMSO, pH 7.4; Kd from equilibrium data (Kd^eq); upper limit for Kd^eq 200 µM
Test Settings: both partners purified
// Kd lookup, one value per entry
Could you kindly put the unit after your number?

binder="hYAP^50-171 Leu68Ala (domain or fragment, human, UniProt P46937-1 50-171, looked up, YAP (Yes-associated protein), human, residues 50-171 of NM_001130145.2; also called hYAP Leu68Ala; source: E. coli NiCo21 (DE3), purified (HisTrap, tag cleaved by HRV 3C protease, Resource S, Superdex 75); not shown: His6, N-terminal, cleaved) AGHQIVHVRGDSETDLEAAFNAVMNPKTANVPQTVPMRLRKLPDSFFKPPEPKSHSRQASTDAGTAGALTPQHVRAHSSPASLQLGAVSPGTLTPTGVVSGPAATPTAQHLRQSSFEIPDDV" metric=Kd assay_value="0.464 µM"
binder="hYAP^50-171 Phe96Ala (domain or fragment, human, UniProt P46937-1 50-171, looked up, YAP (Yes-associated protein), human, residues 50-171 of NM_001130145.2; also called hYAP Phe96Ala; source: E. coli NiCo21 (DE3), purified (HisTrap, tag cleaved by HRV 3C protease, Resource S, Superdex 75); not shown: His6, N-terminal, cleaved) AGHQIVHVRGDSETDLEALFNAVMNPKTANVPQTVPMRLRKLPDSFAKPPEPKSHSRQASTDAGTAGALTPQHVRAHSSPASLQLGAVSPGTLTPTGVVSGPAATPTAQHLRQSSFEIPDDV" metric=Kd assay_value="4.75 µM"
binder="hYAP^50-171 Leu65Ala (domain or fragment, human, UniProt P46937-1 50-171, looked up, YAP (Yes-associated protein), human, residues 50-171 of NM_001130145.2; also called hYAP Leu65Ala; source: E. coli NiCo21 (DE3), purified (HisTrap, tag cleaved by HRV 3C protease, Resource S, Superdex 75); not shown: His6, N-terminal, cleaved) AGHQIVHVRGDSETDAEALFNAVMNPKTANVPQTVPMRLRKLPDSFFKPPEPKSHSRQASTDAGTAGALTPQHVRAHSSPASLQLGAVSPGTLTPTGVVSGPAATPTAQHLRQSSFEIPDDV" metric=Kd assay_value="0.794 µM"
binder="hYAP^50-171 Arg89Ala (domain or fragment, human, UniProt P46937-1 50-171, looked up, YAP (Yes-associated protein), human, residues 50-171 of NM_001130145.2; also called hYAP Arg89Ala; R89A; source: E. coli NiCo21 (DE3), purified (HisTrap, tag cleaved by HRV 3C protease, Resource S, Superdex 75); not shown: His6, N-terminal, cleaved) AGHQIVHVRGDSETDLEALFNAVMNPKTANVPQTVPMRLAKLPDSFFKPPEPKSHSRQASTDAGTAGALTPQHVRAHSSPASLQLGAVSPGTLTPTGVVSGPAATPTAQHLRQSSFEIPDDV" metric=Kd assay_value="27.4 µM"
binder="hYAP^50-171 Leu91Ala (domain or fragment, human, UniProt P46937-1 50-171, looked up, YAP (Yes-associated protein), human, residues 50-171 of NM_001130145.2; also called hYAP Leu91Ala; source: E. coli NiCo21 (DE3), purified (HisTrap, tag cleaved by HRV 3C protease, Resource S, Superdex 75); not shown: His6, N-terminal, cleaved) AGHQIVHVRGDSETDLEALFNAVMNPKTANVPQTVPMRLRKAPDSFFKPPEPKSHSRQASTDAGTAGALTPQHVRAHSSPASLQLGAVSPGTLTPTGVVSGPAATPTAQHLRQSSFEIPDDV" metric=Kd assay_value="30.6 µM"

Value lookup for Kd; key = hYAP^50-171 Phe69Ala (domain or fragment, human, UniProt P46937-1 50-171, looked up, YAP (Yes-associated protein), human, residues 50-171 of NM_001130145.2; also called hYAP Phe69Ala; source: E. coli NiCo21 (DE3), purified (HisTrap, tag cleaved by HRV 3C protease, Resource S, Superdex 75); not shown: His6, N-terminal, cleaved) AGHQIVHVRGDSETDLEALANAVMNPKTANVPQTVPMRLRKLPDSFFKPPEPKSHSRQASTDAGTAGALTPQHVRAHSSPASLQLGAVSPGTLTPTGVVSGPAATPTAQHLRQSSFEIPDDV 6.45 µM
